Molecular target: KRAS G12V (Homo sapiens, UniProt P01116, G12V)
Sequence (P01116 1-188 isoform P01116-2 G12V): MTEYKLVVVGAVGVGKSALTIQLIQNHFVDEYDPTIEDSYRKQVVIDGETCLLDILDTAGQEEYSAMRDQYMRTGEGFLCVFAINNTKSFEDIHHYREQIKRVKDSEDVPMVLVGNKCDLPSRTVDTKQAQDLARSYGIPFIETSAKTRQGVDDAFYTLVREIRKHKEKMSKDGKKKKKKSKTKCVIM
Experiment: GDP-GTP exchange assay (bodipy-GDP/GppNHp, SOS1), KRAS G12V
Settings: bodipy-loaded KRAS G12V 2.5 nM, 3 hours incubation after adding GppNHp-SOS1; read-out: G12V_exchange IC50
Procedure: The inhibitor potency of the exemplified compounds was determined in a fluorescence based guanine nucleotide exchange assay, which measures the exchange of bodipy-GDP (fluorescently labeled GDP) for GppNHp (Non-hydrolyzable GTP analog) to generate the active state of KRAS in the presence of SOS1 (guanine nucleotide exchange factor). […] Fluorescence intensities were measured on a PheraStar plate reader instrument (BMG Labtech) with excitation at 485 nm and emission at 520 nm. […]
IC50 values, listed per item

Answered examples (5):
{"Molecule": "CN(C)C(=O)CCc1nc2c(N3CC(N(C)C)C3)nc3c(-c4cccc(C#N)c4)c(-c4cc(O)cc5ccccc45)c(CCC#N)cc3c2n1[C@@H]1[C@@H]2CN[C@H]1C2 (relative stereo)", "Value": "5000 to 10000 nM"}
{"Molecule": "CCn1ccc(-c2nc3c(N4CC(N(C)C)C4)nc4c(F)c(-c5cc(O)cc6ccccc56)c(CCC#N)cc4c3n2C2C3CNC2C3)n1 (single isomer, unassigned) [Example 35a]", "Value": "≤ 100 nM"}
{"Molecule": "C[C@H](Oc1nc2c(F)c(-c3cccc4cccc(C#N)c34)c(Cl)cc2c2c1ncn2[C@H]1CCN(C(=O)c2nc[nH]n2)[C@H](CC#N)C1)[C@@H]1CCCN1C", "Value": "≤ 100 nM"}
{"Molecule": "CN(C)C1CN(c2nc3c(F)c(-c4cc(O)cc5ccccc45)c(CCC#N)cc3c3c2nc(C2CC2)n3C2C3CNC2C3)C1 (single isomer, unassigned) [Example 25a]", "Value": "100 to 1000 nM"}
{"Molecule": "CN1CCC[C@H]1COc1nc2c(F)c(-c3cc(O)cc4ccccc34)c(CCC#N)cc2c2c1nc(-c1cn(C3CCC3)nn1)n2C1C2CNC1C2 (single isomer, unassigned) [Example 27a]", "Value": "≤ 100 nM"}

Query: Would you mind telling me what IC50 value was observed for CN(C)C1CN(c2nc3c(F)c(-c4cc(O)cc5ccccc45)c(CCC#N)cc3c3c2nc(CCc2ncccn2)n3C2C3CNC2C3)C1 (single isomer, unassigned) ?
Response: ≤ 100 nM

Query: Would you mind telling me what IC50 value was observed for CN(C)C1CN(c2nc3c(F)c(-c4cc(O)cc5ccccc45)c(CCC#N)cc3c3c2nc(-c2cn(C4CCNCC4)nn2)n3C2C3CNC2C3)C1 (single isomer, unassigned) [Example 26a] ?
Response: ≤ 100 nM

Query: Would you mind telling me what IC50 value was observed for CNCCc1nc2c(N3CC(N(C)C)C3)nc3c(F)c(-c4cc(O)cc5ccccc45)c(Cc4ccc(C#N)cc4)cc3c2n1[C@@H]1[C@@H]2CN[C@H]1C2 (relative stereo) ?
Response: 5000 to 10000 nM

Query: Would you mind telling me what IC50 value was observed for CCc1nc2c(OC[C@@]34CCCN3C[C@H](F)C4)nc3c(F)c(-c4c[nH]c5ccc(C)cc45)c(CCC#N)cc3c2n1C1C2CNC1C2 (stereo partly shown) ?
Response: 100 to 1000 nM

Query: Would you mind telling me what IC50 value was observed for CN(C)C1CN(c2nc3c(F)c(-c4cc(O)cc5ccccc45)c(CCC#N)cc3c3c2nc(-c2ccn(Cc4ccccc4)n2)n3C2C3CNC2C3)C1 (single isomer, unassigned) [Example 36a] ?
Response: ≤ 100 nM

----------
pIC50 values, listed per item
target: KRAS G12D (Homo sapiens, UniProt P01116, G12D); experiment: GDP-GTP exchange assay (bodipy-GDP/GppNHp, SOS1), KRAS G12D; assay type: biochemical; conditions: bodipy-loaded KRAS G12D 2.5 nM, 4 hours pre-incubation with inhibitor, 2 hours after GppNHp/SOS1; read-out: G12D_exchange IC50
Sequence (P01116 1-188 isoform P01116-2 G12D): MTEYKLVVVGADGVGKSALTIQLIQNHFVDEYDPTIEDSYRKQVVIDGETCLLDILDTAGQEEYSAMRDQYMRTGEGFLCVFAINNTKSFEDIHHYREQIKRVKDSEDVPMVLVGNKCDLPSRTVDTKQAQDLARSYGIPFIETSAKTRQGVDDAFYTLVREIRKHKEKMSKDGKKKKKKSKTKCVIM
pIC50: −log10 of the molar value.

Answered examples (8):
{"Molecule": "CN(C)C(=O)CCc1nc2c(N3CC(N(C)C)C3)nc3c(-c4cnn(-c5ccccn5)c4)c(-c4cc(O)cc5ccccc45)c(CCC#N)cc3c2n1C1C2CNC1C2 (centres unmarked)", "Value": "6.00 to 7.00"}
{"Molecule": "CC(=O)N1CCCC(c2nc3c(N4CC(N(C)C)C4)nc4c(F)c(-c5cc(O)cc6ccccc56)c(C)cc4c3n2C2C3CNC2C3)C1 (single isomer, unassigned)", "Value": "6.00 to 7.00"}
{"Molecule": "CN1CCC[C@H]1COc1nc2c(F)c(-c3cc(O)cc4ccccc34)c(CCC#N)cc2c2c1nc(-c1cn(C3CCC3)nn1)n2C1C2CNC1C2 (single isomer, unassigned) [Example 27a]", "Value": "≥ 7.00"}
{"Molecule": "CN(C)C(=O)CCc1nc2c(N3CC(N(C)C)C3)nc3c(-c4cccc(C#N)c4)c(-c4cc(O)cc5ccccc45)c(CCC#N)cc3c2n1[C@@H]1[C@@H]2CN[C@H]1C2 (relative stereo)", "Value": "6.00 to 7.00"}
{"Molecule": "CN(C)C1CN(c2nc3c(F)c(-c4cc(O)cc5ccccc45)c(CCC#N)cc3c3c2nc(-c2ccn(Cc4ccccc4)n2)n3C2C3CNC2C3)C1 (single isomer, unassigned) [Example 36a]", "Value": "6.00 to 7.00"}
{"Molecule": "CC(=O)N1CC[C@H](n2nnc3c(O[C@@H](C)[C@@H]4CCCN4C)nc4c(F)c(-c5cccc6cccc(C#N)c56)c(Cl)cc4c32)C[C@H]1CC#N", "Value": "≥ 7.00"}
{"Molecule": "CN(C)C1CN(c2nc3c(F)c(-c4cc(O)cc5ccccc45)c(CCC#N)cc3c3c2nc(CN2CCCC2=O)n3C2C3CNC2C3)C1 (single isomer, unassigned)", "Value": "≥ 7.00"}
{"Molecule": "CN(C)C1CN(c2nc3c(F)c(-c4cc(O)cc5ccccc45)c(CCC#N)cc3c3c2nc(-c2ccn(-c4ccccc4)n2)n3C2C3CNC2C3)C1 (single isomer, unassigned) [Example 34a]", "Value": "≥ 7.00"}

Query: Would you mind telling me what pIC50 value was observed for CN(C)C(=O)CCc1nc2c(N3CC(N(C)C)C3)nc3c(F)c(-c4cc(O)cc5ccccc45)c(Cn4cccn4)cc3c2n1[C@@H]1[C@@H]2CN[C@H]1C2 (relative stereo) ?
Response: ≥ 7.00

Query: Would you mind telling me what pIC50 value was observed for CN(C)C(=O)CCc1nc2c(N3CC(N(C)C)C3)nc3c(F)c(-c4c(O)ccc(Cl)c4Cl)c(CCC#N)cc3c2n1C1C2CNC1C2 (centres unmarked) ?
Response: ≥ 7.00

Query: Would you mind telling me what pIC50 value was observed for CCc1nc2c(Oc3ccccc3)nc3c(F)c(-c4cc(O)cc5ccccc45)c(CCC#N)cc3c2n1C1C2CNC1C2 (single isomer, unassigned) [Example 24a] ?
Response: ≥ 7.00

----------
Target: KRAS G12D (Homo sapiens, UniProt P01116, G12D)
Experiment: GDP-GTP exchange assay (bodipy-GDP/GppNHp, SOS1), KRAS G12D
Details: bodipy-loaded KRAS G12D 2.5 nM, 4 hours pre-incubation with inhibitor, 2 hours after GppNHp/SOS1; read-out: G12D_exchange IC50
Procedure: The inhibitor potency of the exemplified compounds was determined in a fluorescence based guanine nucleotide exchange assay, which measures the exchange of bodipy-GDP (fluorescently labeled GDP) for GppNHp (Non-hydrolyzable GTP analog) to generate the active state of KRAS in the presence of SOS1 (guanine nucleotide exchange factor). […] Fluorescence intensities were measured on a PheraStar plate reader instrument (BMG Labtech) with excitation at 485 nm and emission at 520 nm. […]
IC50 values, listed per item

Answered examples (3):
{"Compound": "Cc1cc2c(nc(N3CC(N(C)C)C3)c3nc(CCC(=O)N4CCN(c5ncccn5)CC4)n(C4C5CNC4C5)c32)c(F)c1-c1cc(O)cc2ccccc12 (single isomer, unassigned) [Example 2a]", "Measured On": "KRAS G12D (Homo sapiens, UniProt P01116, G12D)", "IC50": "≤ 100 nM"}
{"Compound": "CCc1nc2c(OC[C@@]34CCCN3C[C@H](F)C4)nc3c(F)c(-c4c[nH]c5ccc(C)cc45)c(CCC#N)cc3c2n1C1C2CNC1C2 (stereo partly drawn) [Example 28]", "Measured On": "KRAS G12D (Homo sapiens, UniProt P01116, G12D)", "IC50": "≤ 100 nM"}
{"Compound": "CCc1nc2c(-c3ccn4ncnc4c3)nc3c(F)c(-c4cc(O)cc5ccccc45)c(CCC#N)cc3c2n1C1C2CNC1C2 (single isomer, unassigned) [Example 21a]", "Measured On": "KRAS G12D (Homo sapiens, UniProt P01116, G12D)", "IC50": "≤ 100 nM"}

Note: attention shifts to another entry.
Query: Would you mind telling me what IC50 value was observed for CCc1nc2c(-c3ccc(C(=O)NC)nc3)nc3c(F)c(-c4cc(O)cc5ccccc45)c(CCC#N)cc3c2n1C1C2CNC1C2 (single isomer, unassigned) [Example 19a] ?
Response: ≤ 100 nM
